Biological target: Ubiquitin-conjugating enzyme E2 N (Homo sapiens) (UniProt P61088)
Sequence (P61088 whole entry, looked up): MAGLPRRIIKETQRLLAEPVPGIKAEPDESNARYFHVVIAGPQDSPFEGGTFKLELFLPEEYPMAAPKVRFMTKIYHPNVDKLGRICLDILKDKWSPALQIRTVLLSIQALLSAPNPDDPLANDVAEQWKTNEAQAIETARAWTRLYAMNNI
Assay: UBC13 polyubiquitin chain formation inhibitors, primary screen, biochemical, TR-FRET, uHTS (AID 485273)
Settings: at 20 µM
The campaign covered roughly 330,000 compounds. About 1,500 (0.45%) were called active. Cut-off read from the data, not from the text of the source: active = inhibition above about 45% (passing the limit was not always enough); inconclusive = no clear call, values can overlap the other calls. This excerpt belongs to a sample that is enriched for actives.
Give your call using only these classes: true (1) (active), false (0) (inactive)

Observe how each entry below is paired with its result.
# compound, measured-target, group
data = [
    ("CC(C)(C)c1cc2cccnc2n1Cc1cccc(F)c1", "Ubiquitin-conjugating enzyme E2 N (Homo sapiens) (UniProt P61088)", "false (0)"),
    ("C#CCNC(=O)C1=C[C@@H](c2ccccc2)[C@H](CCCO)[C@@H](OCC)O1", "Ubiquitin-conjugating enzyme E2 N (Homo sapiens) (UniProt P61088)", "false (0)"),
    ("Cc1ccc2c(c1)C(c1ccccc1)N(C(=O)c1ccc(S(=O)(=O)N3CCOCC3)cc1)CC(=O)N2 (stereo not drawn)", "Ubiquitin-conjugating enzyme E2 N (Homo sapiens) (UniProt P61088)", "false (0)"),
]

As a next step, examine the compound that follows.
I'd appreciate the recorded outcome for "CCNC(=O)CCc1nc(-c2ccc(C)cc2)no1" from this test. false (0)

====

Answer each item with its documented inhibition.
Biological target: Ubiquitin-conjugating enzyme E2 N (Homo sapiens)
Assay: UBC13 polyubiquitin chain formation inhibitors, primary screen, biochemical, TR-FRET, uHTS (AID 485273)
Settings: at 20 µM, active compounds read high
Hit rate of the full screen: of about 330,000 compounds, about 1,500 (0.45%) were called active. The list comes from a sample in which actives are over-represented; it also holds close analogues and randomly drawn compounds.

# compound, measured-target, readout-label, reported-result
records = [
    ("O=C(CN1C(=O)CCC1=O)Nc1ccc(S(=O)(=O)N2CCOCC2)cc1", "Ubiquitin-conjugating enzyme E2 N (Homo sapiens)", "inhibition", "0.4% (inactive)"),
]

For each entry beneath this line, provide reported inhibition.
1. CCOCCCNS(=O)(=O)Cc1ccccc1
2. O=S(=O)(c1ccc(NC(=S)NN=C(C2CC2)C2CC2)cc1)N1CCOCC1
3. CC1CN(C(=O)CCC(=O)NCc2cccnc2)c2ccccc2O1 (configuration not stated)
4. CCCC1C(=O)N2C(N(C)C)=Nc3ccc(C)cc3N2C1=O (configuration not stated)
5. CCN1C(=NCc2ccc(OC)cc2)N[C@@H](CCc2ccccc2)[C@H](C(=O)NCc2ccc(OC)cc2)[C@H]1C
6. CC(=O)Nc1ccc(NC(=O)c2sc3nc4c(c(-c5ccc(C)cc5)c3c2N)CCC4)cc1

["-13.7% (inactive)", "45.9% (active)", "2.3% (inactive)", "-21% (inactive)", "48.7% (active)", "54% (active)"]

For each entry beneath this line, provide reported inhibition.
1. CCCc1cc(=O)[nH]c2nnc(SCC(=O)Nc3nnc(SCC)s3)n12
2. CC(Sc1nnnn1C1CCCCC1)C(=O)O (configuration not stated)
3. CCCN1CCN(C(=O)CCCNC(=O)c2ccc(Cl)cc2)CC1
4. CCN1C(=S)N[C@@H](CCc2ccccc2)[C@H](C(=O)OC)[C@H]1C
5. O=C(CCl)NNc1nc(-c2ccccc2)c2cc(Cl)ccc2n1
6. Cc1nonc1C1CCCN1Cc1nc(-c2ccc(F)cc2F)oc1C (configuration not stated)
7. NC(N)=Nc1nc(-c2ccccc2)c2cc(Cl)ccc2n1
8. CC(C)CC1(C(=O)NCc2ccccn2)C=CCN1C(=O)c1ccccc1 (configuration not stated)

["-15.5% (inactive)", "-4.9% (inactive)", "-6.8% (inactive)", "4.5% (inactive)", "-10.6% (inactive)", "0.7% (inactive)", "51.4% (active)", "13% (inactive)"]

# credit: PubChem BioAssay AID485273
